assay: Growth inhibition of human MDA-MB-231 cells at 10 uM after 48 hrs by SRB assay relative to control; type: functional; conditions: MDA-MB-231, 48 h, read-out: GI
Would you mind labelling by inhibition of growth at 10 µM? At or over 40% is TRUE, under is FALSE.

>  <mol.smiles>
COc1ccc(-n2c(SCc3cc(OC)c(OC)c(OC)c3)nc3ccc(Cl)cc3c2=O)cc1

>  <class.label>
FALSE

$$$$
>  <mol.smiles>
COc1cc2nc(SCc3cc(OC)c(OC)c(OC)c3)n(-c3ccccc3OC)c(=O)c2cc1OC

>  <class.label>
FALSE

$$$$
>  <mol.smiles>
COc1ccc(CSc2nc3cc(OC)c(OC)cc3c(=O)n2-c2ccc(OC)cc2OC)cc1

>  <class.label>
FALSE

$$$$
>  <mol.smiles>
COc1ccc(-n2c(SCc3cc(OC)c(OC)c(OC)c3)nc3ccc(C)cc3c2=O)c(OC)c1

>  <class.label>
TRUE

$$$$
>  <mol.smiles>
COc1cc(CSc2nc3ccc(Cl)cc3c(=O)n2-c2ccccc2)cc(OC)c1OC

>  <class.label>
FALSE

$$$$
